Assayed System: human steroid 5-alpha-reductase (Homo sapiens, UniProt P31213)
Construct: Prostatic particles were obtained by differential centrifugation; from tissue; host or cells: hyperplastic human prostate, washed 140,000×g particulate fraction
Sequence (P31213 1-254): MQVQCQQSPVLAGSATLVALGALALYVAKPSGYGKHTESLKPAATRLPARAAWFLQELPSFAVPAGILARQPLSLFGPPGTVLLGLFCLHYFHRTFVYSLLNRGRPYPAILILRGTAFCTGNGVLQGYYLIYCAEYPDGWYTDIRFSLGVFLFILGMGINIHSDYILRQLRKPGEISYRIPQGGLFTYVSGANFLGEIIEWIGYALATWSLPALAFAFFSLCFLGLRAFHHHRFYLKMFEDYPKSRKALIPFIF
Procedure Text: Inhibition of human prostatic steroid 5-alpha-reductase ([14C]-testosterone conversion, Dixon plot)
Format: biochemical
Outcome Measure: pKi
Scale note: pKi = -log10(concentration in M).

Name the reported pKi value associated with the molecule C[C@@H](CO)[C@H]1CCC2=C3CC[C@H]4N(C)C(=O)CC[C@]4(C)[C@H]3CC[C@@]21C
6.35

###

Assayed System: human steroid 5-alpha-reductase (Homo sapiens, UniProt P31213)
Construct: Prostatic particles were obtained by differential centrifugation; from tissue; host or cells: hyperplastic human prostate, washed 140,000×g particulate fraction
Procedure Text: Inhibition of human prostatic steroid 5-alpha-reductase ([14C]-testosterone conversion, Dixon plot)
Type: biochemical
Experimental Context: human hyperplastic prostate particulate, pH 5.0, 37° C.; read-out: Ki
Outcome Measure: pKi
Scale note: pKi = -log10(concentration in M).

# Item Smiles, Outcome Measure, Value Observed
records = [
    ("CC(C)N(C(=O)[C@H]1CCC2=C3CC[C@H]4N(C)C(=O)CC[C@]4(C)[C@H]3CC[C@@]21C)C(C)C", "pKi", 8.10),
]

Consider the record given below.
Identify the measured pKi of C[C@@H](C(=O)O)[C@H]1CCC2=C3CC[C@H]4N(C)C(=O)CC[C@]4(C)[C@H]3CC[C@@]21C for human steroid 5-alpha-reductase (Homo sapiens, UniProt P31213).
7.00
